target-or-system: SETD2(1434-1711) (Homo sapiens, UniProt Q9BYW2)
Construct: SETD2 (1434-1711) Assay; catalogue N/A
Sequence (Q9BYW2 1434-1711): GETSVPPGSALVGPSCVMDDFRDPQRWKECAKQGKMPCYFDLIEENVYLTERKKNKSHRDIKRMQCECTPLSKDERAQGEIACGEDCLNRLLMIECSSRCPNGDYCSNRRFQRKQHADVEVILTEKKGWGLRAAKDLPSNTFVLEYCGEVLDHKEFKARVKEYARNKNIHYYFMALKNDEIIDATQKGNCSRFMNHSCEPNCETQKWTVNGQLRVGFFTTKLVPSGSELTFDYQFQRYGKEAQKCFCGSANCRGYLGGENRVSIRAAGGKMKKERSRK
protocol-summary: SETD2 (1434-1711) assay
Format: biochemical
cond: read-out: SETD2 (1434-1711)
Listed compounds paired with reported log10(IC50)
Please keep in mind that the values are log10 of IC50 expressed in nM.

# count of solved cases: 8
> print(dat)
                                   compound  recorded.endpoint  observed.value
1  Cc1ccc(F)c2cc(C(=O)Nc3cccc(N4CCN5C(=O)NCC5C4)c3)[nH]c12 (stereo not drawn) [compound 181]        log10(IC50)            1.48
2  Cc1ccc(F)c2cc(C(=O)Nc3cc(F)cc(N4CCC(C)(N5CCOCC5)C4)c3)[nH]c12 (stereo not drawn) [compound 159]        log10(IC50)            1.90
3  Cc1cccnc1C(CCC(=O)N(C)C)NC(=O)c1cc2cccc(C)c2[nH]1 (stereo not drawn) [compound 446]        log10(IC50)            3.80
4  Cc1ccc(F)c2cc(C(=O)N[C@H]3CCC[C@H](c4cccnc4)C3)[nH]c12 [compound 904]        log10(IC50)            3.91
5  CC(=O)N1C2CC1CN(c1cccc(NC(=O)c3cc4c(F)ccc(C)c4[nH]3)c1)C2 [compound 257]        log10(IC50)            2.30
6  CCc1cccc2cc(C(=O)NC(CCC(=O)N3CCOCC3)c3ncccc3C)[nH]c12 (stereo not drawn) [compound 464]        log10(IC50)            3.92
7  CC(=O)N1CCN(c2cccc(NC(=O)c3cc4c(F)ccc(C)c4[nH]3)c2)CC1C (stereo not drawn) [compound 32]        log10(IC50)            1.30
8  Cc1ccc(NC(=O)c2cc3c(F)ccc(C)c3[nH]2)cc1N1CCN(C)CC1 [compound 270]        log10(IC50)            1.70

# input for lookup
Given Cc1cc(CCN2CCN(C)CC2)cnc1C(Cc1ccccc1)NC(=O)c1cc2c(F)ccc(C)c2[nH]1 (stereo not drawn) [compound 258] , state its recorded log10(IC50).
1.60

###

Listed compounds paired with reported IC50
target-or-system: SETD2(1434-1711) (Homo sapiens)
Construct: SETD2 (1434-1711) Assay; catalogue N/A
protocol-summary: SETD2 (1434-1711) assay
Format: biochemical
cond: read-out: SETD2 (1434-1711)
Note: unit nM is implicit; provide only the numeric part.

> print(dat)
                                   compound  observed.value
1  Cc1cccnc1C(CC1CC1)NC(=O)c1cc2cccc(C)c2[nH]1 (centres unmarked)            3000
2  Cc1cccc2cc(C(=O)N[C@H]3C[C@H]4CC[C@@H]3CN4C(=O)CCN)[nH]c12           15300
3  Cc1ccc(F)c2cc(C(=O)Nc3cccc(N4CCOC(C)C4)c3)[nH]c12 (centres unmarked)              60

Given Cc1ccc(F)c2cc(C(=O)N[C@@H]3CCCC(N4CCC5(CC4)CNC(=O)N5)C3)[nH]c12 (some centres unmarked) , state its recorded IC50.
100

And what about the compound Cc1cccnc1C(NC(=O)c1cc2cccc(C)c2[nH]1)C1CCNC1 (centres unmarked) ?
116000

And what about the compound Cc1cccc2cc(C(=O)NC(c3cncc(CN(C)C)c3)C3CC3)[nH]c12 (centres unmarked) ?
125000

And what about the compound CNC(=C[N+](=O)[O-])N1CCN(C2CCCC(NC(=O)c3cc4c(F)ccc(C)c4[nH]3)C2)CC1 (centres unmarked) ?
900

And what about the compound Cc1cccc2cc(C(=O)NCC(O)c3c(F)cccc3F)[nH]c12 (centres unmarked) ?
109000

And what about the compound Cc1ccc(F)c2cc(C(=O)Nc3cccc(N4CCOC4=O)c3)[nH]c12 ?
30

And what about the compound Cc1ccc(F)c2cc(C(=O)Nc3cc(F)cc(N4CCC(N5CCN(CC(=O)N(C)C)CC5)C4)c3)[nH]c12 (centres unmarked) ?
6

And what about the compound Cc1cc(CCN2CCN(C)CC2)cnc1C(CCc1ccccc1)NC(=O)c1cc2c(F)ccc(C)c2[nH]1 (centres unmarked) ?
80

And what about the compound CNC1CCN(c2cccc(NC(=O)c3cc4c(F)ccc(C)c4[nH]3)c2)CC1 ?
20

And what about the compound Cc1ccc(F)c2cc(C(=O)N[C@@H]3CCC[C@H](N4CCn5c(n[nH]c5=O)C4)C3)[nH]c12 ?
40

And what about the compound Cc1ccc(F)c2cc(C(=O)NC3CCCC(N4CCN(C(=O)CO)C(C(F)(F)F)C4)C3)[nH]c12 (centres unmarked) [compound 1176] ?
2900

And what about the compound Cc1ccc(F)c2cc(C(=O)Nc3cccc(C4CCN(C)CC4)c3)[nH]c12 ?
20

And what about the compound Cc1ccc(F)c2cc(C(=O)Nc3cccc(NC4CCN(C)C4)c3)[nH]c12 (centres unmarked) ?
70

And what about the compound Cc1ccc(F)c2cc(C(=O)Nc3cccc(N4CCC(N5CCOCC5)C4)c3)[nH]c12 (centres unmarked) ?
30

And what about the compound Cc1ccc(F)c2cc(C(=O)N[C@@H]3CCC[C@H](N4CCC5(CC4)CNC(=O)C5)C3)[nH]c12 ?
30

And what about the compound Cc1cc(CC(=O)N2CCN(C)CC2)cnc1C(NC(=O)c1cc2cccc(C)c2[nH]1)C1CC1 (centres unmarked) ?
4400
